Overview of recorded IC50 for various compounds
Biological target: IDH1 R132H (Homo sapiens, UniProt O75874, R132H)
Sequence (O75874 whole entry R132H): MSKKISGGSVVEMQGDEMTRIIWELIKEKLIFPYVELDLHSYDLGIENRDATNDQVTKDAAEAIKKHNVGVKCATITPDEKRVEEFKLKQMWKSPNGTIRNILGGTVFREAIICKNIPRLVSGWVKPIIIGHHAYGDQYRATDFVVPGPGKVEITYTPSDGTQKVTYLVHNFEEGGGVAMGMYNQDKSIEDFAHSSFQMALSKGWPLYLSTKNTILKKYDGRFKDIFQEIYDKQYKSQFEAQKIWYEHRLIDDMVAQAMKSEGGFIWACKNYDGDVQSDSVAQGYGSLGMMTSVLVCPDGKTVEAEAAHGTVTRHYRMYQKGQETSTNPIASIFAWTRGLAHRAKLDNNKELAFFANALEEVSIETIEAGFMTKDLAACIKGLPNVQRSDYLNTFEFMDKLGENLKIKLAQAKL
Test: In vitro assay for IDH1 R132H inhibitors (NADPH/aKG, resazurin detection)
Assay type: biochemical
Conditions: Table 4A; 0.2 μg/ml IDH1 R132H, 50 minutes at room temperature; read-out: IC50 (uM), IDH1 R132H Inhibition

compound: CCCCc1ccc(C(C(=O)NC2CCCCC2)N(C(=O)Cc2cccs2)c2cccc(F)c2)cc1 (stereo not shown)
experimental-result: ≥ 100 µM

Reported IC50 of Cc1ccccc1[C@@H](C(=O)NC1CCCCC1)N(C(=O)Cc1cccs1)c1cccc(F)c1 (single isomer, unassigned) : ≤ 0.1 µM

Reported IC50 of O=C(NC1CCCC1)C(c1ccccc1Cl)N(C(=O)Cc1cccs1)c1cccc(F)c1 (stereo not shown) : ≤ 0.1 µM

Reported IC50 of O=C(NC1CCCCC1)C(c1ccccc1F)N(Cc1cccs1)C(=O)Cc1cccs1 (stereo not shown) : 1 to 10 µM

Reported IC50 of CC(C)Cc1ccc(C(C(=O)NC2CCCCC2)N(C(=O)Cc2cccs2)c2cccc(F)c2)cc1 (stereo not shown) : ≥ 100 µM

Reported IC50 of COCOc1ccc(C(C(=O)NC2CCCCC2)N(C(=O)Cc2cccs2)c2cccc(F)c2)cc1 (stereo not shown) : 1 to 10 µM

Reported IC50 of O=C(NC1CCCCC1)C(c1ccccc1F)N(C(=O)c1ccccn1)c1cccc(F)c1 (stereo not shown) : 0.1 to 1 µM

----------
Biological target: IDH1 R132H (Homo sapiens, UniProt O75874, R132H)
Experiment: In vitro assay for IDH1 R132H inhibitors (NADPH/aKG, resazurin detection)
Format: biochemical
Conditions: Table 4B; 0.2 μg/ml IDH1 R132H, 50 minutes at room temperature; read-out: IC50, IDH1 R132H Inhibition
Method: Assays were conducted in a volume of 76 μl assay buffer (150 mM NaCl, 10 mM MgCl2, 20 mM Tris pH 7.5, 0.03% bovine serum albumin) as follows in a standard 384-well plate: To 25 ul of substrate mix (8 uM NADPH, 2 mM aKG), 1 μl of test compound was added in DMSO. […] The conversion of resazurin to resorufin was detected by fluorescent spectroscopy at Ex544 Em590 c/o 590. […]
Overview of recorded IC50 for various compounds

compound: CC(=O)c1cccc(N(C(=O)Cc2cccs2)C(C(=O)NC2CCCCC2)c2ccccc2C)c1 (centres unmarked) [Compound 131]
IC50: 100 to 1000 nM
//
compound: Cc1ccccc1C(C(=O)NC1CCCCC1)N(C(=O)Cn1ccnn1)c1cccc(F)c1 (centres unmarked) [Compound 329]
IC50: 100 to 1000 nM
//
compound: Cc1ccccc1[C@@H](C(=O)NC1CCCCC1)N(C(=O)[C@H]1CCCN1C(=O)OC(C)(C)C)c1cccc(F)c1 [Compound 340]
IC50: 100 to 1000 nM
//
compound: [2H]C1([2H])C([2H])([2H])C([2H])([2H])C([2H])(NC(=O)C(c2ccccc2C)N(C(=O)CNc2ncccc2F)c2cccc(F)c2)C([2H])([2H])C1([2H])[2H] (centres unmarked) [Compound 361]
IC50: ≤ 100 nM

Shifting focus to the compound that follows.
Reported IC50 of O=C(NC1CCCCC1)C(c1ccccc1Br)N(C(=O)Cc1cccs1)c1cccc(F)c1 (centres unmarked) [Compound 104] : ≤ 100 nM
